# Lookup of reported Conversion by PAD4 (%) keyed by entry
- experimental-system: PAD4 (Homo sapiens, UniProt Q9UM07)
- Sequence (Q9UM07 whole entry): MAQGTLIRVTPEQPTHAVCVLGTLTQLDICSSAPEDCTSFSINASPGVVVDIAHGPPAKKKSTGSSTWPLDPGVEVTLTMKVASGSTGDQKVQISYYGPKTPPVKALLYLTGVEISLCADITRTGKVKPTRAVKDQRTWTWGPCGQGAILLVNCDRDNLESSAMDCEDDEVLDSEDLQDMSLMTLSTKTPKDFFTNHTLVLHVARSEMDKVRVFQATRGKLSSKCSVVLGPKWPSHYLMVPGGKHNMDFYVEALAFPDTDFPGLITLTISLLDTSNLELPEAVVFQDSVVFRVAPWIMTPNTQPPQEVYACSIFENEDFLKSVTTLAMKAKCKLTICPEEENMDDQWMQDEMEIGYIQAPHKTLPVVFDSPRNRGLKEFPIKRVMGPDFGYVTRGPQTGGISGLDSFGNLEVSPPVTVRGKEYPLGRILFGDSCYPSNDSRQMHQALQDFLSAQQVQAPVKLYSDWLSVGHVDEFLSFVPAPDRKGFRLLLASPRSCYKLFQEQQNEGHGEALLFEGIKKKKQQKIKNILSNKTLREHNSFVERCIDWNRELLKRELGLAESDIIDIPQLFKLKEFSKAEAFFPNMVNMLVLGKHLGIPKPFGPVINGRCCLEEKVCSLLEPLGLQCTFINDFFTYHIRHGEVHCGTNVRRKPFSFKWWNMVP
- assay-remarks: Conversion (R to Cit) of substrate peptides by PAD4, mass spectrometry
- Type: biochemical
- experimental-setup: Table 10
Ends that are not written are not given here.
Output spec: scalar in %, unitless text.

Ask | Fill in the recorded Conversion by PAD4 (%) for this substance, with PAD4 (Homo sapiens, UniProt Q9UM07) as test system: D-S-K-K-F-H-R-G-F-L-Y-S-D (DSKKFHRGFLYSD; not fully specified (C-terminus); printed as D-S-K-K-F-H-R-G-F-L-Y-S-D) [Peptide 0708-33]
Reply | 73

The record that follows has no Conversion by PAD4 (%) shown yet.
Ask | Provide value of Conversion by PAD4 (%) for this record tested with PAD4 (Homo sapiens, UniProt Q9UM07): D-S-K-H-F-H-R-D-F-I-Y-S-D (DSKHFHRDFIYSD; not fully specified (C-terminus); printed as D-S-K-H-F-H-R-D-F-I-Y-S-D) [Peptide 0608-23]
Reply | 69

====

- experimental-system: PAD2 (Homo sapiens, UniProt Q9Y2J8)
- Sequence (Q9Y2J8 whole entry): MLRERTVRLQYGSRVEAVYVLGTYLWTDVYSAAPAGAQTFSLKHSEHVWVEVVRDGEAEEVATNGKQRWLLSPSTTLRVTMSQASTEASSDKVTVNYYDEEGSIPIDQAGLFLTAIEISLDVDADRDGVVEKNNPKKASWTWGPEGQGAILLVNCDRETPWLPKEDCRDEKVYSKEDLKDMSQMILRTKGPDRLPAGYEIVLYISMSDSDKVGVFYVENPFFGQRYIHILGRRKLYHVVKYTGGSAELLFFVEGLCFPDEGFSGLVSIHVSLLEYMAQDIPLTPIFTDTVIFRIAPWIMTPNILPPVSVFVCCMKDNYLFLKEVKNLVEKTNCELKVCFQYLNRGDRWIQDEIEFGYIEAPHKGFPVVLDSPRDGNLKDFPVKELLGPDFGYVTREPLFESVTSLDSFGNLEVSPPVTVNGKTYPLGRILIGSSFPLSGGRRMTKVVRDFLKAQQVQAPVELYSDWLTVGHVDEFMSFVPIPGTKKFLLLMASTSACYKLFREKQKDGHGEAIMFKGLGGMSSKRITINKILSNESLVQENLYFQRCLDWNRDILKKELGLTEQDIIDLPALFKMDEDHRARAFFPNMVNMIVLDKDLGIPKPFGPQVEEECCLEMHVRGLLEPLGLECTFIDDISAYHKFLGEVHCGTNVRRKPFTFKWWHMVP
- assay-remarks: Conversion (R to Cit) of substrate peptides by PAD2, mass spectrometry
- Assay type: biochemical
- experimental-setup: Table 10
Ends that are not written are not given here.
The entries below come with measured Conversion by PAD2 (%) values attached.
Report the value in % with no unit label.

Ask | I am curious: what Conversion by PAD2 (%) value has been reported for D-S-K-K-L-H-R-D-H-M-E-S-D (DSKKLHRDHMESD; not fully specified (C-terminus); printed as D-S-K-K-L-H-R-D-H-M-E-S-D) [Peptide 0608-29] ?
Reply | 90

Others:
Ask | Tell me the measured Conversion by PAD2 (%) of F-F-D-S-K-H-L-S-R-E-W-M-W-S-D (FFDSKHLSREWMWSD) [Peptide 0612-26] , please.
Reply | 97

Ask | State the recorded Conversion by PAD2 (%) for this entry: D-S-K-H-L-S-R-E-W-M-W-S-D (DSKHLSREWMWSD; not fully specified (C-terminus); printed as D-S-K-H-L-S-R-E-W-M-W-S-D) [Peptide 0608-24]
Reply | 95

====

Listing: Conversion (%) of selected substances
- experimental-system: PAD4 (Homo sapiens, UniProt Q9UM07)
- assay-remarks: Conversion (R to Cit) of substrate peptides by PAD4, mass spectrometry
- Type: biochemical
- experimental-setup: Table 4, 13-mer peptides, PAD4
Ends that are not written are not given here.

Examples with their reported Conversion (%) follow.
Ask | Using the record for D-S-H-K-F-D-R-D-F-I-Y-S-D (DSHKFDRDFIYSD; not fully specified (C-terminus); printed as D-S-H-K-F-D-R-D-F-I-Y-S-D) [Peptide 0608-43] , report its Conversion (%).
Reply | 100%

Ask | Return reported Conversion (%); argument: D-S-H-K-H-S-R-E-W-L-W-S-D (DSHKHSREWLWSD; not fully specified (C-terminus); printed as D-S-H-K-H-S-R-E-W-L-W-S-D) [Peptide 0608-36]
Reply | 90%

Ask | Conversion (%) lookup needed for D-S-K-H-L-S-R-E-W-M-W-S-D (DSKHLSREWMWSD; not fully specified (C-terminus); printed as D-S-K-H-L-S-R-E-W-M-W-S-D) [Peptide 0608-24] , thanks.
Reply | 90%

Next:
Ask | Tell me the measured Conversion (%) of D-S-K-K-H-D-R-D-F-L-Y-S-D (DSKKHDRDFLYSD; not fully specified (C-terminus); printed as D-S-K-K-H-D-R-D-F-L-Y-S-D) [Peptide 0608-31] , please.
Reply | 100% (=L2)

====

- experimental-system: PAD4 (Homo sapiens)
- assay-remarks: Citrullination of synthetic peptides by recombinant human PAD4 (MALDI-TOF and ESI-Q-TOF mass spectrometry)
- Assay type: biochemical
- Design: His6; made in house
- experimental-setup: share of peptide with one citrulline
endpoint: PAD4 conversion: 1 Cit (%)
Provide the reading as a plain figure in %.

Take a look at these entries with their results.
Ask | // lookup PAD4 conversion: 1 Cit | system=PAD4 (Homo sapiens) | key= D-S-Q-F-A-F-R-G-A-S-A-S-D (DSQFAFRGASASD) [Peptide 0308-29, reference compound]
Reply | 2

Ask | Write down the reported PAD4 conversion: 1 Cit of IGSRGDRSGFGKF [SEQ ID NO: 6] , test system: PAD4 (Homo sapiens).
Reply | 69

Ask | # returns recorded PAD4 conversion: 1 Cit (system: PAD4 (Homo sapiens)) for DSYRSWRDGYYSD [SEQ ID NO: 4]
Reply | 99

Ask | Reported PAD4 conversion: 1 Cit for PAD4 (Homo sapiens), given IEIMTDRGSGKKR [SEQ ID NO: 5] ?
Reply | 60

Ask | Provide the documented PAD4 conversion: 1 Cit with PAD4 (Homo sapiens) as the system for DSEGTWRKGPEAD [SEQ ID NO: 8]
Reply | 15

Ask | Give the reported PAD4 conversion: 1 Cit for IEIITDRQSGKKR [SEQ ID NO: 7] (system: PAD4 (Homo sapiens)).
Reply | 88

Others:
Ask | Request - read-out PAD4 conversion: 1 Cit | tested on PAD4 (Homo sapiens) | substance DGYGGSRDSYSSS [SEQ ID NO: 3]
Reply | 3

Ask | What reported PAD4 conversion: 1 Cit corresponds to GGYSGDRSGGGYG [SEQ ID NO: 2] on PAD4 (Homo sapiens)?
Reply | 39

Ask | Item DSSEELRGGGKSD [SEQ ID NO: 9] with PAD4 (Homo sapiens) - PAD4 conversion: 1 Cit?
Reply | 7

Ask | Record DSRFYWRGGGKSD [SEQ ID NO: 10] : what is its PAD4 conversion: 1 Cit with PAD4 (Homo sapiens)?
Reply | 69

Ask | Query for PAD4 (Homo sapiens): what PAD4 conversion: 1 Cit does the record show for DDYSSSRDGYGGS [SEQ ID NO: 1] ?
Reply | 3

====

- experimental-system: PAD2 (Homo sapiens, UniProt Q9Y2J8)
- assay-remarks: Conversion (R to Cit) of substrate peptides by PAD2, mass spectrometry
- Assay type: biochemical
- experimental-setup: Table 10
Marks after values point to notes of the source that are not given here. Ends that are not written are not given here.
endpoint: Conversion by PAD2 (%)

Take a look at these entries with their results.
Ask | # get_value(readout='Conversion by PAD2 (%)', item= D-S-K-K-F-K-R-D-F-L-F-S-D (DSKKFKRDFLFSD; not fully specified (C-terminus); printed as D-S-K-K-F-K-R-D-F-L-F-S-D) [Peptide 0708-26] )
Reply | 97%

Ask | I'd like to know its Conversion by PAD2 (%). The substance in question is D-S-K-K-H-D-R-D-H-L-W-S-D (DSKKHDRDHLWSD; not fully specified (C-terminus); printed as D-S-K-K-H-D-R-D-H-L-W-S-D) [Peptide 0708-20]
Reply | 95%

Ask | So what does the record say about Conversion by PAD2 (%) for F-F-D-S-K-H-F-D-R-E-W-I-W-S-D (FFDSKHFDREWIWSD) [Peptide 0612-30] ?
Reply | 94 ** %

Ask | Which Conversion by PAD2 (%) value is on record for D-S-K-F-A-F-R-G-G-I-A-S-D (DSKFAFRGGIASD; not fully specified (C-terminus); printed as D-S-K-F-A-F-R-G-G-I-A-S-D) [Peptide 0735-41] ?
Reply | 90%

Could you now look at the following substance, please?
Ask | Returns the measured Conversion by PAD2 (%) for the input substance. Input: D-S-K-K-F-D-R-D-H-L-Y-S-D (DSKKFDRDHLYSD; not fully specified (C-terminus); printed as D-S-K-K-F-D-R-D-H-L-Y-S-D) [Peptide 0708-15]
Reply | 90%

====

- experimental-system: PAD2 (Homo sapiens, UniProt Q9Y2J8)
- assay-remarks: Conversion (R to Cit) of substrate peptides by PAD2, mass spectrometry
- Format: biochemical
- experimental-setup: Table 10
- Protocol: In a similar fashion as for PAD4 we identified improved peptide substrates for PAD2. Again L1 was used as a lead compound. The set of 152 peptides from Table 3 was used and testing was performed as described before. Conversion of arginine into citrulline in the substrate peptides by PAD2 or PAD4 using mass spectrometry was performed as follows. […] A sample was analysed on a Qtof mass spectrometer (Micromass, UK) and the mass spectrum was compared with that of the same peptide not treated with PAD. […]
Ends that are not written are not given here.
endpoint: Conversion by PAD2 (%)
Your answer is read as %, so omit the unit and give the number.

Known Conversion by PAD2 (%) results, listed for orientation:
Ask | What value of Conversion by PAD2 (%) has been reported for the following substance? D-S-Q-W-A-F-R-H-A-L-F-S-D (DSQWAFRHALFSD) [Peptide 0735-37]
Reply | 95

Ask | // Conversion by PAD2 (%) lookup, key: F-F-D-S-H-K-K-S-R-E-Y-V-F-S-D (FFDSHKKSREYVFSD) [Peptide 0612-44]
Reply | 100

Ask | Form field: reported Conversion by PAD2 (%) of D-S-H-K-H-S-R-E-W-L-W-S-D (DSHKHSREWLWSD; not fully specified (C-terminus); printed as D-S-H-K-H-S-R-E-W-L-W-S-D) [Peptide 0608-36]
Reply | 97

Ask | What measured Conversion by PAD2 (%) goes with D-S-K-K-F-D-R-G-H-L-Y-S-D (DSKKFDRGHLYSD; not fully specified (C-terminus); printed as D-S-K-K-F-D-R-G-H-L-Y-S-D) [Peptide 0708-30] ?
Reply | 90

# context switch: different substance, same Conversion by PAD2 (%)
Ask | State the recorded Conversion by PAD2 (%) for this entry: D-S-K-F-K-F-R-Y-A-Y-A-S-D (DSKFKFRYAYASD; not fully specified (C-terminus); printed as D-S-K-F-K-F-R-Y-A-Y-A-S-D) [Peptide 0735-34]
Reply | 91
